Cited source for all entries: patent US10196390B2

# MEASUREMENT TARGET: JAK2 (Homo sapiens (Human), UniProt O60674)
# Sequence (O60674 whole entry): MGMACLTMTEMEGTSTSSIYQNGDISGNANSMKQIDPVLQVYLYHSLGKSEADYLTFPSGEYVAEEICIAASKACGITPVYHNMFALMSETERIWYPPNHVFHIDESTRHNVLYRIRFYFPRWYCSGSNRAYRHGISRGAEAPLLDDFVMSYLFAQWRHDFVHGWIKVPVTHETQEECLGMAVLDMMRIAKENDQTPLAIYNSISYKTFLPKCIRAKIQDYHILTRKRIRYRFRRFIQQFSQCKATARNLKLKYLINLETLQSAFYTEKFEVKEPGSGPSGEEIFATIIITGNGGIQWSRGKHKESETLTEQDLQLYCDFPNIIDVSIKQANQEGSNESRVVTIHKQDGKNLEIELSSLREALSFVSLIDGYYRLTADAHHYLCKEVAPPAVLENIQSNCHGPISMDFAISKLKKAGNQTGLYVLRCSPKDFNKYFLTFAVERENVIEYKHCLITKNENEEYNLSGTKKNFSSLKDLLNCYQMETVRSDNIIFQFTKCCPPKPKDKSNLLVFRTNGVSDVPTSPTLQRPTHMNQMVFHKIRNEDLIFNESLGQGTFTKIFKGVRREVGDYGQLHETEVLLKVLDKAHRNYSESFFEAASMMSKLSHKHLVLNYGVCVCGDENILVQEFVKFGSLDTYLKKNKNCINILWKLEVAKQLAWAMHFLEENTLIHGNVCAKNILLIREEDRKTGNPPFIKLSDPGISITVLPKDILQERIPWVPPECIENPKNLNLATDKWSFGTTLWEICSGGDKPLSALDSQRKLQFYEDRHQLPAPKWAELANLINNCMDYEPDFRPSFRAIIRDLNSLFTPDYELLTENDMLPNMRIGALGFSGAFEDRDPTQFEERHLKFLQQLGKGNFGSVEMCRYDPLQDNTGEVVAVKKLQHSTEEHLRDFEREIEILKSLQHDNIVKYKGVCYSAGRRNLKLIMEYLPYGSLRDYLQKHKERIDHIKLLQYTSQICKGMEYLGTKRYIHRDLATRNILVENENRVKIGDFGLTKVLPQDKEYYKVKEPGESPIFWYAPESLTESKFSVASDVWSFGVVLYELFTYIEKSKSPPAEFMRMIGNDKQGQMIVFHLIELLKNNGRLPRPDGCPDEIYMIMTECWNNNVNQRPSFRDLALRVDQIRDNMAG
# ASSAY: JAK2 activity inhibition assay (radioactive kinase assay / Caliper assay)
# Format: biochemical
# CONDITION DESCRIPTION: read-out: JAK2 Ki
pKi: −log10 of the molar value.
PROPERTY NAME: pKi

Input O=C1NCc2nc(-c3c(F)cccc3F)cc(Nc3ccc(F)cc3)c21 [Compound I-235] , output reported pKi.
6.00 to 7.00

Input O=C1NCc2nc(-c3c(F)cccc3F)cc(Nc3ccc(C4CCNC4=O)cn3)c21 (stereo not shown) [Compound I-133] , output reported pKi.
7.00 to 8.00

Input O=C1NCc2nc(-c3c(F)cccc3F)nc(Nc3ccc([C@H]4CCNC4=O)cc3)c21 [Compound I-86] , output reported pKi.
7.00 to 8.00

Input O=C1NCc2nc(-c3c(F)cccc3F)nc(Nc3ccc(CC(=O)N4CCOC[C@H]4C(=O)O)cc3)c21 [Compound I-112] , output reported pKi.
6.00 to 7.00

Input CC1(c2ccc(Nc3nc(-c4c(F)cccc4F)nc4c3C(=O)NC4)cc2)NC(=O)NC1=O (stereo not shown) [Compound I-172] , output reported pKi.
7.00 to 8.00

Input CN1CCN[C@](C)(c2ccc(Nc3cc(-c4c(F)cccc4F)nc4c3C(=O)NC4)nc2)C1=O [Compound I-224] , output reported pKi.
> 8.00

Input CC1(c2ccc(Nc3nc(-c4c(F)cccc4F)nc4c3C(=O)NC4)cc2)CCN(C2CCOCC2)C1=O (stereo not shown) [Compound I-124] , output reported pKi.
7.00 to 8.00

Input O=C1NCc2nc(-c3c(F)cccc3F)nc(Nc3ccc(C4CCN(CCN5CCOCC5)C4=O)cc3)c21 (stereo not shown) [Compound I-121] , output reported pKi.
6.00 to 7.00

Input O=C1NCc2nc(-c3c(F)cccc3F)nc(Nc3ccc([C@@H]4CCCNC4=O)cc3)c21 [Compound I-155] , output reported pKi.
6.00 to 7.00

Input CCNC(=O)Cc1ccc(Nc2cc(-c3c(F)cccc3Cl)nc3c2C(=O)NC3)nc1 [Compound I-199] , output reported pKi.
7.00 to 8.00

Input O=C1NCc2nc(-c3c(F)cccc3F)cc(Nc3ccc(OCCN4CCOCC4)cn3)c21 [Compound I-148] , output reported pKi.
7.00 to 8.00

Input O=C(O)Cc1ccc(Nc2cc(-c3c(F)cccc3F)nc3c2C(=O)NC3)nc1 [Compound I-186] , output reported pKi.
6.00 to 7.00

Input O=C1NCc2nc(-c3c(F)cccc3F)nc(Nc3cnn(CC(=O)N4CCC[C@H]4CO)c3)c21 [Compound I-68] , output reported pKi.
< 6.00

Input O=C1NCc2nc(-c3c(F)cccc3F)nc(Nc3ccc(CC(=O)N4CCC[C@@H]4CO)cc3)c21 [Compound I-15] , output reported pKi.
6.00 to 7.00

Input CC(C)(C(=O)O)c1ccc(Nc2nc(-c3c(F)cccc3F)nc3c2C(=O)NC3)cc1 [Compound I-109] , output reported pKi.
6.00 to 7.00

Input CC(C)(C)NC(=O)c1ccc(Nc2cc(-c3c(F)cccc3F)nc3c2C(=O)NC3)nc1 [Compound I-165] , output reported pKi.
7.00 to 8.00
